The following compounds have recorded log10 IC50 on Aurora kinase A (Mus musculus).
Sequence (P97477 whole entry): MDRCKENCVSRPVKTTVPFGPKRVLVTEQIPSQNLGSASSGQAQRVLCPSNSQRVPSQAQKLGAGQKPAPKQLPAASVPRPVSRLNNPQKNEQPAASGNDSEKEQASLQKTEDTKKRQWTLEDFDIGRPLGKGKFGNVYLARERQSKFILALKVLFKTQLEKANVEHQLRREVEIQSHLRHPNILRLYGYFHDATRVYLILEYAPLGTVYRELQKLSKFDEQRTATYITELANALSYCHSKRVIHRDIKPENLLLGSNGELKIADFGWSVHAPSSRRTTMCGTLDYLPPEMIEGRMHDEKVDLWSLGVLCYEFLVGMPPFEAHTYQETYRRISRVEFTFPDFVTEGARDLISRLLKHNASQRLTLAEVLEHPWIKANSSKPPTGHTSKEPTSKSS
All values: log10 IC50 [nM].

[
  {
    "SUBSTANCE_SMILES": "CN1CCN(c2cccc(Nc3ncc4ccn(-c5cccc(C(=O)NC6CCCC6)c5)c4n3)c2)CC1",
    "METRIC": "log10 IC50",
    "ENDPOINT_RESULT": 2.91
  },
  {
    "SUBSTANCE_SMILES": "COc1cccc(-n2ccc3cnc(Nc4cccc(N5CCN(C)CC5)c4)nc32)c1",
    "METRIC": "log10 IC50",
    "ENDPOINT_RESULT": 0.78
  },
  {
    "SUBSTANCE_SMILES": "CN1CCN(c2cccc(Nc3ncc4ccn(-c5cccc(C#N)c5)c4n3)c2)CC1",
    "METRIC": "log10 IC50",
    "ENDPOINT_RESULT": 1.11
  }
]

Read the entry COCCN1CCN(Nc2ncc3ccn(C4CCCCC4)c3n2)CC1 and write its reported log10 IC50.
0.78

Read the entry CN1CCN(c2cccc(Nc3ncc4ccn(-c5cccnc5)c4n3)c2)CC1 and write its reported log10 IC50.
1.08

Read the entry c1cc(N2CCOCC2)ccc1Nc1ncc2ccn(C3CCCCC3)c2n1 and write its reported log10 IC50.
1.69

Read the entry CN1CCN(c2cccc(Nc3ncc4ccn(-c5cccc(C(N)=O)c5)c4n3)c2)CC1 and write its reported log10 IC50.
1.04

Read the entry COc1cc2c(Nc3ccc(NC(=O)c4ccccc4)cc3)ncnc2cc1OCCCN1CCOCC1 and write its reported log10 IC50.
1.59

Read the entry O=S1(=O)CCN(c2ccc(Nc3ncc4ccn(-c5ccccn5)c4n3)cc2)CC1 and write its reported log10 IC50.
-0.10
